- TESTED SYSTEM: UniProt:O43781
- Sequence (O43781 whole entry): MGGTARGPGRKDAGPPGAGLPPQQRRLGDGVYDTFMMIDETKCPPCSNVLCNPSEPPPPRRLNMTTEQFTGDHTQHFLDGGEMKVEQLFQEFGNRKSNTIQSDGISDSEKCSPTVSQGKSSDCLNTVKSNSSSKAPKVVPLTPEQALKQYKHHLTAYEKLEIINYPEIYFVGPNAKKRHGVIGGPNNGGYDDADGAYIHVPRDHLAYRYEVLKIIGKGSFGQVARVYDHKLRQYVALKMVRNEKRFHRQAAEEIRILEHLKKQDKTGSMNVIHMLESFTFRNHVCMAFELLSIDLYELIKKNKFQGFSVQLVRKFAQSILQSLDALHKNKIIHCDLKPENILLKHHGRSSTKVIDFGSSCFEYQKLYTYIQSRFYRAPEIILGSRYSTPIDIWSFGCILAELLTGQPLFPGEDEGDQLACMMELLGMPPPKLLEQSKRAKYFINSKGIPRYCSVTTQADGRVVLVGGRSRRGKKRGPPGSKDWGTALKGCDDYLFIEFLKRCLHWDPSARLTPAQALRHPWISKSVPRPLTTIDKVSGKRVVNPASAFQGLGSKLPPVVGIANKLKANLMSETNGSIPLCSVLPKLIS
- PROCEDURE SUMMARY: Inhibition of human full length recombinant GST-tagged DYRK3 expressed in baculovirus by Z'-LYTE assay

STRUCTURE NOTATION: CNC(=O)c1ccc(Nc2nc(OC3CCCC3)c3c(-c4ccc5nc(C)oc5c4)c[nH]c3n2)c(OC)c1
IC50 (nM): 99

====

- PROCEDURE SUMMARY: Mean residence time in rat at 2 mg/kg, iv
- Format: ADME, organism-based
- MEASUREMENT CONDITIONS: in vivo
PARAMETER: MRT (h)

STRUCTURE NOTATION: CNC(=O)c1ccc(Nc2nc(O[C@H]3CCOC3)c3c(-c4ccc5nc(C)oc5c4)c[nH]c3n2)c(OC)c1
PARAMETER: MRT
RECORDED RESULT: 1
--
STRUCTURE NOTATION: CNC(=O)c1ccc(Nc2nc(OC(C)C)c3c(-c4ccc5nc(C)oc5c4)c[nH]c3n2)c(OC)c1
PARAMETER: MRT
RECORDED RESULT: 3.5
--
STRUCTURE NOTATION: CNC(=O)c1ccc(Nc2nc(O[C@H]3CC[C@@](C)(O)CC3)c3c(-c4ccc5nc(C)oc5c4)c[nH]c3n2)c(OC)c1
PARAMETER: MRT
RECORDED RESULT: 2.9
--
STRUCTURE NOTATION: COc1cc(C(=O)NC2COC2)ccc1Nc1nc(OC2CCCC2)c2c(-c3ccc4nc(C)oc4c3)c[nH]c2n1
PARAMETER: MRT
RECORDED RESULT: 4.7
--
STRUCTURE NOTATION: CNC(=O)c1ccc(Nc2nc(OC3CCOCC3)c3c(-c4ccc5nc(C)oc5c4)c[nH]c3n2)c(OC)c1
PARAMETER: MRT
RECORDED RESULT: 2.9
--
STRUCTURE NOTATION: CNC(=O)c1ccc(Nc2nc(OC3CCCC3)c3c(-c4ccc5nc(C)oc5c4)c[nH]c3n2)c(OC)c1
PARAMETER: MRT
RECORDED RESULT: 4.1

====

- PROCEDURE SUMMARY: Metabolic stability in rat liver S9 fraction assessed as percent of compound remaining after 60 mins
- Type: ADME, tissue-based
- MEASUREMENT CONDITIONS: read-out: Stability

STRUCTURE NOTATION: CNC(=O)c1ccc(Nc2nc(O[C@H]3CC[C@@](C)(O)CC3)c3c(-c4ccc5nc(C)oc5c4)c[nH]c3n2)c(OC)c1
READING UNIT: %
remaining at 1 h: 76
--
STRUCTURE NOTATION: CNC(=O)c1ccc(Nc2nc(O[C@H]3CCOC3)c3c(-c4ccc5nc(C)oc5c4)c[nH]c3n2)c(OC)c1
READING UNIT: %
remaining at 1 h: 62
--
STRUCTURE NOTATION: CNC(=O)c1ccc(Nc2nc(OC3CCCC3)c3c(-c4ccc(CO)cc4)c[nH]c3n2)c(OC)c1
READING UNIT: %
remaining at 1 h: 18
--
STRUCTURE NOTATION: COc1cc(C(=O)NC2COC2)ccc1Nc1nc(OC2CCCC2)c2c(-c3ccc4nc(C)oc4c3)c[nH]c2n1
READING UNIT: %
remaining at 1 h: 91
--
STRUCTURE NOTATION: CNC(=O)c1ccc(Nc2nc(OC3CCCC3)c3c(-c4ccc(O)cc4)c[nH]c3n2)c(OC)c1
READING UNIT: %
remaining at 1 h: 1
--
STRUCTURE NOTATION: CNC(=O)c1ccc(Nc2nc(OC3CCCC3)c3c(-c4ccc5oc(C)nc5c4)c[nH]c3n2)c(OC)c1
READING UNIT: %
remaining at 1 h: 86
--
STRUCTURE NOTATION: CNC(=O)c1ccc(Nc2nc(OC3CCCC3)c3c(-c4ccc(-c5nnc[nH]5)cc4)c[nH]c3n2)c(OC)c1
READING UNIT: %
remaining at 1 h: 84
--
STRUCTURE NOTATION: CNC(=O)c1ccc(Nc2nc(OC3CCCC3)c3c(-c4ccc(-c5ccn[nH]5)cc4)c[nH]c3n2)c(OC)c1
READING UNIT: %
remaining at 1 h: 84
--
STRUCTURE NOTATION: CNC(=O)c1ccc(Nc2nc(OC3CCCC3)c3c(-c4ccc5nc[nH]c5c4)c[nH]c3n2)c(OC)c1
READING UNIT: %
remaining at 1 h: 46
--
STRUCTURE NOTATION: CNC(=O)c1ccc(Nc2nc(OC3CCCC3)c3c(-c4ccc5nc(C)oc5c4)c[nH]c3n2)c(OC)c1
READING UNIT: %
remaining at 1 h: 98
--
STRUCTURE NOTATION: CNC(=O)c1ccc(Nc2nc(OC3CCCC3)c3c(-c4cc[nH]n4)c[nH]c3n2)c(OC)c1
READING UNIT: %
remaining at 1 h: 53
--
STRUCTURE NOTATION: CNC(=O)c1ccc(Nc2nc(OC3CCCC3)c3c(-c4ccc(OC)cc4)c[nH]c3n2)c(OC)c1
READING UNIT: %
remaining at 1 h: 76
--
STRUCTURE NOTATION: CNC(=O)c1ccc(Nc2nc(OC3CCCC3)c3c(-c4ccc5cn[nH]c5c4)c[nH]c3n2)c(OC)c1
READING UNIT: %
remaining at 1 h: 85
--
STRUCTURE NOTATION: CNC(=O)c1ccc(Nc2nc(OC3CCCC3)c3c(-c4cccnc4)c[nH]c3n2)c(OC)c1
READING UNIT: %
remaining at 1 h: 59
--
STRUCTURE NOTATION: CNC(=O)c1ccc(Nc2nc(OC3CCCC3)c3c(-c4ccc(-c5ncc[nH]5)cc4)c[nH]c3n2)c(OC)c1
READING UNIT: %
remaining at 1 h: 64
--
STRUCTURE NOTATION: CNC(=O)c1ccc(Nc2nc(OC3CCCC3)c3c(-c4ccccc4)c[nH]c3n2)c(OC)c1
READING UNIT: %
remaining at 1 h: 86
--
STRUCTURE NOTATION: CNC(=O)c1ccc(Nc2nc(OC3CCCC3)c3c(-c4cccc(CO)c4)c[nH]c3n2)c(OC)c1
READING UNIT: %
remaining at 1 h: 54

====

- PROCEDURE SUMMARY: Mean residence time in SCID mouse at 10 mg/kg, iv
- Assay type: ADME, organism-based
- MEASUREMENT CONDITIONS: in vivo

STRUCTURE NOTATION: CNC(=O)c1ccc(Nc2nc(O[C@H]3CC[C@@](C)(O)CC3)c3c(-c4ccc5nc(C)oc5c4)c[nH]c3n2)c(OC)c1
READING UNIT: h
MRT: 1
//
STRUCTURE NOTATION: CNC(=O)c1ccc(Nc2nc(OC3CCOCC3)c3c(-c4ccc5nc(C)oc5c4)c[nH]c3n2)c(OC)c1
READING UNIT: h
MRT: 1.8
//
STRUCTURE NOTATION: CNC(=O)c1ccc(Nc2nc(O[C@H]3CCOC3)c3c(-c4ccc5nc(C)oc5c4)c[nH]c3n2)c(OC)c1
READING UNIT: h
MRT: 0.73
//
STRUCTURE NOTATION: CNC(=O)c1ccc(Nc2nc(OC(C)C)c3c(-c4ccc5nc(C)oc5c4)c[nH]c3n2)c(OC)c1
READING UNIT: h
MRT: 4.8
//
STRUCTURE NOTATION: COc1cc(C(=O)NC2COC2)ccc1Nc1nc(OC2CCCC2)c2c(-c3ccc4nc(C)oc4c3)c[nH]c2n1
READING UNIT: h
MRT: 1.4

====

- TESTED SYSTEM: Dual specificity tyrosine-phosphorylation-regulated kinase 1B (Homo sapiens)
- Sequence (Q9Y463 whole entry): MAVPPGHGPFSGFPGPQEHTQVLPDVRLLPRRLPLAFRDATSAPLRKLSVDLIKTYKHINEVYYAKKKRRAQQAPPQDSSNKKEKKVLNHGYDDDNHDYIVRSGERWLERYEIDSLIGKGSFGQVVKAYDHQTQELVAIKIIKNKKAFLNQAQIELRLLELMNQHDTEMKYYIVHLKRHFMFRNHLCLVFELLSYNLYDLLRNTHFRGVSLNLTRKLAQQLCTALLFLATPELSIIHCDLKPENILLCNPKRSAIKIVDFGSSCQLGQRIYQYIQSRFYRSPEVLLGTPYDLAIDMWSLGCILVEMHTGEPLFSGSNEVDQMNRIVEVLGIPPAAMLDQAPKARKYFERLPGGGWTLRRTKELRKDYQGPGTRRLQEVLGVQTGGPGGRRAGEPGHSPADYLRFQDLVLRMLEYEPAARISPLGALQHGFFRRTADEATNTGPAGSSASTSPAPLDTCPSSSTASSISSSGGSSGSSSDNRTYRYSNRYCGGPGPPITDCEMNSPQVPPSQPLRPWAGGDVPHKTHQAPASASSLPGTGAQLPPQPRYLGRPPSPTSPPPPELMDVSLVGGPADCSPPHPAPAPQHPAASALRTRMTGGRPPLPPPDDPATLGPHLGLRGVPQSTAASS
- PROCEDURE SUMMARY: Inhibition of full length human recombinant GST-tagged DYRK1B expressed in baculovirus by Z'-LYTE assay
pIC50: −log10 of the molar value.
PARAMETER: pIC50

STRUCTURE NOTATION: CNC(=O)c1ccc(Nc2nc(OC3CCCC3)c3c(-c4ccc5nc(C)oc5c4)c[nH]c3n2)c(OC)c1
TESTED SYSTEM: Dual specificity tyrosine-phosphorylation-regulated kinase 1B (Homo sapiens)
RECORDED RESULT: 6.80

====

- PROCEDURE SUMMARY: Volume of distribution at steady state in rat at 2 mg/kg, iv
- Format: ADME, organism-based
- MEASUREMENT CONDITIONS: in vivo, read-out: Vdss
Property: Vd; scope: individual compounds
PARAMETER: Vd (L/kg)

STRUCTURE NOTATION: CNC(=O)c1ccc(Nc2nc(O[C@H]3CCOC3)c3c(-c4ccc5nc(C)oc5c4)c[nH]c3n2)c(OC)c1
RECORDED RESULT: 1.6
//
STRUCTURE NOTATION: CNC(=O)c1ccc(Nc2nc(OC3CCCC3)c3c(-c4ccc5nc(C)oc5c4)c[nH]c3n2)c(OC)c1
RECORDED RESULT: 2.3
//
STRUCTURE NOTATION: CNC(=O)c1ccc(Nc2nc(OC3CCOCC3)c3c(-c4ccc5nc(C)oc5c4)c[nH]c3n2)c(OC)c1
RECORDED RESULT: 3.8
//
STRUCTURE NOTATION: CNC(=O)c1ccc(Nc2nc(O[C@H]3CC[C@@](C)(O)CC3)c3c(-c4ccc5nc(C)oc5c4)c[nH]c3n2)c(OC)c1
RECORDED RESULT: 2.9
//
STRUCTURE NOTATION: COc1cc(C(=O)NC2COC2)ccc1Nc1nc(OC2CCCC2)c2c(-c3ccc4nc(C)oc4c3)c[nH]c2n1
RECORDED RESULT: 3.7
//
STRUCTURE NOTATION: CNC(=O)c1ccc(Nc2nc(OC(C)C)c3c(-c4ccc5nc(C)oc5c4)c[nH]c3n2)c(OC)c1
RECORDED RESULT: 7.2
